tested on: Ruminococcus gnavus DSM 108212; assay: growth (OD595) fold change vs plate DMSO controls (fold change (ratio)); higher = more growth; conditions: incubation time: 27 h, anaerobic, 37 °C
Structures can show the parent of a compound that is named as a salt.
Below, each entry is listed with its recorded growth.
The answer should be written as a number, with no unit following it.

Completed entries (count: 2):
MOLECULE	growth
Cc1ccc2c(c1)c1c3n2CCNC3CCC1 (centres undefined) [Pirlindole mesylate] (20 µM)	1
CC1(C)O[C@@H]2C[C@H]3[C@@H]4C[C@H](F)C5=CC(=O)C=C[C@]5(C)[C@H]4[C@@H](O)C[C@]3(C)[C@]2(C(=O)CO)O1 [Flunisolide] (20 µM)	0.998

Give the measured growth of CCN(CC)CCOc1ccc(C(=C(Cl)c2ccccc2)c2ccccc2)cc1 [(Z,E) Clomiphene citrate] (20 µM) . 1.01

growth lookup needed for O=C(O)/C=C/c1ccc(Cn2ccnc2)cc1 [Ozagrel hydrochloride] (20 µM) , thanks. 0.975

###

tested on: Ruminococcus gnavus DSM 108212; assay: growth (OD595) fold change vs plate DMSO controls (fold change (ratio)); higher = more growth; details: incubation time: 27 h, anaerobic, 37 °C
Counter-ions that a name gives are not always drawn.
Label yes (1) when growth is at or above 1; anything below gets no (0).

COMPOUND	CLASS NAME
COCC(=O)O[C@]1(CCN(C)CCCc2nc3ccccc3[nH]2)CCc2cc(F)ccc2[C@@H]1C(C)C [Mibefradil hydrochloride] (20 µM)	no (0)

Please examine the following record next.
Determine whether this compound has growth no lower than 1: CN(Cc1ccc(C(C)(C)C)cc1)Cc1cccc2ccccc12 [Butenafine hydrochloride] (20 µM) no (0)

###

system: Klebsiella aerogenes DSM 30053; assay: growth (OD595) fold change vs plate DMSO controls (fold change (ratio)); higher = more growth; conditions: incubation time: 27 h, anaerobic, 37 °C
Counter-ions that a name gives are not always drawn.
RECORDED ENDPOINT: growth

Worked cases, growth given:
COMPOUND	VALUE
C[N+](C)(C)CCCCCC[N+](C)(C)C [Hexamethonium dibromide dihydrate] (20 µM)	1
N=C(N)c1ccc(OCCCCCOc2ccc(C(=N)N)cc2)cc1 [Pentamidine isethionate] (20 µM)	0.985
CCc1c(C)[nH]c2c1C(=O)C(CN1CCOCC1)CC2 (stereo not given) [Molindone hydrochloride] (20 µM)	1
Cc1cc(-c2ccccc2)nnc1NCCN1CCOCC1 [Minaprine dihydrochloride] (20 µM)	0.972

Turning to the following compound.
// query growth value for entry CCCCOC(=O)c1ccc(N)cc1 [Butamben] (20 µM) 1.01

###

tested on: Clostridium sporogenes DSM 1664; assay: growth (OD595) fold change vs plate DMSO controls (fold change (ratio)); higher = more growth; settings: incubation time: 27 h, anaerobic, 37 °C
Where a name gives a salt, the structure may show the parent alone.
Kind request: treat 1 as inclusive, so growth at 1 or higher is true, anything lower is false.

Use these answered entries as a reference point.
MOLECULE	CLASS NAME
NC(=O)N1c2ccccc2C=Cc2ccccc21 [Carbamazepine] (20 µM)	false
CC(C)(C(=O)O)c1ccc(C(O)CCCN2CCC(C(O)(c3ccccc3)c3ccccc3)CC2)cc1 (configuration not stated) [Fexofenadine hydrochloride] (20 µM)	true
C[C@H]1[C@@H](O)O[C@@H]2O[C@@]3(C)CC[C@H]4[C@H](C)CC[C@@H]1[C@@]24OO3 [Artenimol] (20 µM)	true
O=C(O)[C@H]1/C(=C/CO)O[C@@H]2CC(=O)N21 [Clavulanate potassium salt] (20 µM)	false

// inclusive: growth at least 1? input: CCCC(CCC)C(=O)O[C@H]1C[C@H]2CC[C@@H](C1)[N+]2(C)C [Anisotropine Methylbromide] (20 µM) true

Evaluate CCN1CCCC(OC(=O)C(c2ccccc2)c2ccccc2)C1 (configuration not stated) [Piperidolate hydrochloride] (20 µM) : growth at minimum 1? true
